- experimental.system: Tyrosine-protein kinase Lyn (Homo sapiens, UniProt P07948); further: in the data inactive means no Kd found up to 30 µM
- Sequence (P07948 whole entry): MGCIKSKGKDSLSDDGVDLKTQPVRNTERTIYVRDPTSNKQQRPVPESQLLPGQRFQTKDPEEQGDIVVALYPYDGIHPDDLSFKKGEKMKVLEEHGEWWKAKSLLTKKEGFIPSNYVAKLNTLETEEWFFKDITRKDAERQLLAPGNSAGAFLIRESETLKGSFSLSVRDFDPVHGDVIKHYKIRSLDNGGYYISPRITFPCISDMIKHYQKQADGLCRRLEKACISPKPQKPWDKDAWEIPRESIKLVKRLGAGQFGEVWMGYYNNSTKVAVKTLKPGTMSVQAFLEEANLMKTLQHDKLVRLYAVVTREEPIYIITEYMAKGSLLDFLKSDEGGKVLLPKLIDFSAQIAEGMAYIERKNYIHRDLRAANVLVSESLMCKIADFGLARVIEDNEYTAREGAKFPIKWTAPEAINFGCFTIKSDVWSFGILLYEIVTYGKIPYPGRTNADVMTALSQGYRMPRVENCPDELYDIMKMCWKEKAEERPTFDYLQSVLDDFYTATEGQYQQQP
Calls of active or inactive are those of the source.
Outcomes: true (1) for active, false (0) for inactive

Cn1cnc2c(F)c(Nc3ccc(Br)cc3F)c(C(=O)NOCCO)cc21 [BINIMETINIB]; false (0)
CCOc1cc2ncc(C#N)c(Nc3ccc(F)c(Cl)c3)c2cc1NC(=O)/C=C/CN(C)C [PELITINIB]; false (0)
Nc1ncnc2c1c(-c1cccc(OCc3ccccc3)c1)cn2[C@H]1C[C@@H](CN2CCC2)C1 [AEW-541]; true (1)
CNC(=O)c1nn(C)c2c1C(C)(C)Cc1cnc(Nc3ccc(N4CCN(C)CC4)cc3)nc1-2 [MILCICLIB]; true (1)

* * *

- experimental.system: MAP/microtubule affinity-regulating kinase 3 (Homo sapiens, UniProt P27448); further: in the data inactive means no Kd found up to 30 µM
- Sequence (P27448 whole entry): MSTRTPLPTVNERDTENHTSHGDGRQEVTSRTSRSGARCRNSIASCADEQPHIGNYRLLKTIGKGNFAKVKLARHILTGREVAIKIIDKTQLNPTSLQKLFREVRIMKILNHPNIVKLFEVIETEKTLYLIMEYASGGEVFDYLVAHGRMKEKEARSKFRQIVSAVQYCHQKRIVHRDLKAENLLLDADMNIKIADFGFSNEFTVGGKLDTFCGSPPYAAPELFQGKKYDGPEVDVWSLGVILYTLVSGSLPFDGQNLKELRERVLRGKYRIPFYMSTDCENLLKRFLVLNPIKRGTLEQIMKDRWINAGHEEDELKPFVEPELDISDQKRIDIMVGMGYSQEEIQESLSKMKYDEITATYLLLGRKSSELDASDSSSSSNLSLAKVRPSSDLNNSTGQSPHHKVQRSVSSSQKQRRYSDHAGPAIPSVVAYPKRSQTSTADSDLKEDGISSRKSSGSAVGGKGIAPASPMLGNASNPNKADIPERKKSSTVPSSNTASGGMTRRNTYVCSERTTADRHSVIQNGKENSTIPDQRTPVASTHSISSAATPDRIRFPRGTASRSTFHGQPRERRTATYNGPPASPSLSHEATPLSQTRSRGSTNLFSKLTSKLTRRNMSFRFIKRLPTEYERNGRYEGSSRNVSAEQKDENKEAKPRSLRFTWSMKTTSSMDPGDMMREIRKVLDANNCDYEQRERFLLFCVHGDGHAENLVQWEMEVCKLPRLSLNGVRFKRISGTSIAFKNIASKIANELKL
Active and inactive are the calls of the source.
Outcomes: active, inactive

CNC(=O)c1cc(Oc2ccc(NC(=O)Nc3cc(C(C)(C)C)nn3-c3ccc4ncccc4c3)c(F)c2)ccn1; inactive
Cc1cnc(NC(=O)Nc2cc(Br)c(C)cc2OC[C@@H]2CNCCO2)cn1; inactive
C[C@H]1CNCCCN1S(=O)(=O)c1cccc2cncc(F)c12; active
COc1c(OCCCN2CCOCC2)ccc2c1N=C(NC(=O)c1cnc(N)nc1)N1CCN=C21; inactive
O=c1[nH]ccc2cc(OC3CCNCC3)ccc12 [SAR-407899 FREE BASE]; inactive

* * *

- experimental.system: Serine/threonine-protein kinase 26 (Homo sapiens, UniProt Q9P289); further: in the data inactive means no Kd found up to 30 µM
- Sequence (Q9P289 whole entry): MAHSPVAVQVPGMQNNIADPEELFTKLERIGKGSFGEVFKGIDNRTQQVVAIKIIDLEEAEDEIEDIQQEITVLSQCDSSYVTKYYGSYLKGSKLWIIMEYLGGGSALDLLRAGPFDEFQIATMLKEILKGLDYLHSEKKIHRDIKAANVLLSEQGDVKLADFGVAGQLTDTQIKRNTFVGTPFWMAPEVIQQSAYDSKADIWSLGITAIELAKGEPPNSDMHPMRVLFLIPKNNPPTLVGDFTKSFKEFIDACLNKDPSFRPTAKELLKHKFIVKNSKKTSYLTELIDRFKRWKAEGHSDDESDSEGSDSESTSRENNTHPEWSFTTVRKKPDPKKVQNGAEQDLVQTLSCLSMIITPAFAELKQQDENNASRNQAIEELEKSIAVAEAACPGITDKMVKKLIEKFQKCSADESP
Calls of active or inactive are those of the source.
Outcomes: active, inactive

O=C(Nc1cc(C(F)(F)F)cc(C(F)(F)F)c1)c1cc(Cl)ccc1O; inactive
C=CC(=O)Nc1cc2c(Nc3ccc(F)c(Cl)c3)ncnc2cc1C#CC(C)(C)N1CCN(C)CC1 [AV-412 FREE BASE]; inactive
Cc1csc(-c2nnc(Nc3ccc(Oc4ncccc4-c4ccnc(N)n4)cc3)c3ccccc23)c1; active
CCS(=O)(=O)c1cccc(-c2cc(C(=O)NC3CCN(C)CC3)c(C)c3[nH]c4ncc(C)cc4c23)c1; inactive

* * *

Where a name gives a salt, the structure may show the parent alone. Activity calls are given as the source filed them.
A set of molecules tested on UniProtKB Q2M2I8, with measured Kd:
quantity: Kd

COc1ncc(-c2ccc3nccc(-c4ccnnc4)c3c2)cc1NS(=O)(=O)c1ccc(F)cc1F; > 30 µM (inactive)
CCS(=O)(=O)N1CCN(c2ccc(Nc3ncc(C(N)=O)c(NC4CC4)n3)cc2)CC1 [Cerdulatinib Hydrochloride]; 0.001 µM (active)
O=C(Nc1cc(C(F)(F)F)cc(C(F)(F)F)c1)c1cc(Cl)ccc1O; > 30 µM (inactive)
CCOc1cc2ncc(C#N)c(Nc3ccc(F)c(Cl)c3)c2cc1NC(=O)/C=C/CN(C)C; > 30 µM (inactive)
CO[C@H]1C[C@@H]2CC[C@@H](C)[C@@](O)(O2)C(=O)C(=O)N2CCCC[C@H]2C(=O)O[C@H]([C@H](C)C[C@@H]2CC[C@@H](OC(=O)C(C)(CO)CO)[C@H](OC)C2)CC(=O)[C@H](C)/C=C(\C)[C@@H](O)[C@@H](OC)C(=O)[C@H](C)C[C@H](C)/C=C/C=C/C=C/1C; > 30 µM (inactive)
C=CC(=O)N1CCC[C@H](n2c(=O)n(-c3ccc(Oc4ccccc4)cc3)c3c(N)ncnc32)C1; > 30 µM (inactive)
COc1cc([C@@H]2c3cc4c(cc3[C@H](O)[C@H]3COC(=O)[C@@H]23)OCO4)cc(OC)c1OC; > 30 µM (inactive)
COc1cc2c(Nc3ccc(Cl)c(Cl)c3F)ncnc2cc1OC[C@@H]1C[C@@H]2CN(C)C[C@@H]2C1; > 30 µM (inactive)
Cc1cccc(-c2nn3c(c2-c2ccnc4ccc(C(N)=O)cc24)CCC3)n1; > 30 µM (inactive)
COc1cc(Nc2ncc3c(n2)-c2ccc(Cl)cc2C(c2c(F)cccc2OC)=NC3)ccc1C(=O)O; > 30 µM (inactive)
COCc1c(-c2ccc(NC(=O)Nc3cc(C(F)(F)F)ccc3F)c(F)c2)c2c(N)ncnn2c1CN1CCOCC1; > 30 µM (inactive)
Cc1cnc(NC(=O)Nc2cc(Br)c(C)cc2OC[C@@H]2CNCCO2)cn1; > 30 µM (inactive)
NC(=O)Nc1cc(-c2cccc(F)c2)sc1C(=O)N[C@H]1CCCNC1; 0.073 µM (active)
CCNC(=O)C#Cc1ccc2c(c1)NC(=O)/C2=C(\Nc1ccc(CN(C)C)cc1)c1ccccc1; > 30 µM (inactive)
C=CC(=O)Nc1cc2c(Nc3ccc(F)c(Cl)c3)ncnc2cc1C#CC(C)(C)N1CCN(C)CC1 [AV-412 FREE BASE]; > 30 µM (inactive)
Cn1ncc(Cl)c1-c1cc(C(=O)N[C@H](CN)Cc2ccc(F)c(F)c2)oc1Cl; > 30 µM (inactive)
C[C@@H](N)c1ccc(C(=O)Nc2ccnc3[nH]ccc23)cc1; 0.122 µM (active)
FC(F)(F)c1ccc(/C=C/c2nc(COc3ccc(CCCCn4ccnn4)cc3)co2)cc1; > 30 µM (inactive)
CC(=O)NCC(=O)N1[C@@H]2CC[C@H]1c1ccc(Nc3ncc(C(F)(F)F)c(NC4CCC4)n3)cc12; 0.009 µM (active)
Cc1nc(NC(=O)N2CCC[C@H]2C(N)=O)sc1-c1ccnc(C(C)(C)C(F)(F)F)c1; > 30 µM (inactive)
C[C@H]1CNCCCN1S(=O)(=O)c1cccc2cncc(F)c12; > 30 µM (inactive)
CCn1c(C(=O)N(C2CC2)C2CC2)cc2c3c(ncn3C)c(Nc3cc(C)n(C)n3)nc21; > 30 µM (inactive)
COc1ccc(S(=O)(=O)N(C(C)=O)c2ccccc2/C=C/c2cc[n+]([O-])cc2)cc1; > 30 µM (inactive)
Cc1cc(Nc2ncnc3ccc(NC4=NC(C)(C)CO4)cc23)ccc1Oc1ccn2ncnc2c1; > 30 µM (inactive)
COc1c(OCCCN2CCOCC2)ccc2c1N=C(NC(=O)c1cnc(N)nc1)N1CCN=C21; > 30 µM (inactive)
Cn1cnc2c(F)c(Nc3ccc(Br)cc3F)c(C(=O)NOCCO)cc21; > 30 µM (inactive)
Cc1cc(C(=O)NOCCO)c(Nc2ccc(I)cc2F)n(C)c1=O; > 30 µM (inactive)
CCn1cc(-c2ccnc3[nH]c(-c4cccc(CN(C)C)c4)cc23)c(-c2ccc(NC(=O)N(C)C)cc2)n1; > 30 µM (inactive)
CO[C@H]1C[C@@H]2CC[C@@H](C)[C@@](O)(O2)C(=O)C(=O)N2CCCC[C@H]2C(=O)O[C@H]([C@H](C)C[C@@H]2CC[C@@H](OP(C)(C)=O)[C@H](OC)C2)CC(=O)[C@H](C)/C=C(\C)[C@@H](O)[C@@H](OC)C(=O)[C@H](C)C[C@H](C)/C=C/C=C/C=C/1C; > 30 µM (inactive)
CC(C)c1cc(CNc2nc(Nc3cc(C4CC4)[nH]n3)cc(N3CCN(C)CC3)n2)on1; 0.138 µM (active)
